system: MOLT-4; assay: NCI tumour cell line growth inhibition, 48 h
The source made the active and inactive calls. No stated cut-off is given here; in the data, active = GI50 up to about 1.1 µM and inactive = higher.
Pick from active, inactive when you respond.

For orientation, consider the following solved cases.
# molecule, className
rows = [
    ("CC(CCC=O)CCOCc1ccccc1 (configuration not stated)", "inactive"),
    ("COC(=O)[C@@H]1CN(C(=O)Cc2ccccc2)C(=O)N1", "inactive"),
    ("Cc1ccc(NC(=O)/C(CC2Nc3c(ccc4c3C(=O)c3ccccc3C4=O)NC2O)=N/NC(C)(C)C)cc1 (configuration not stated)", "inactive"),
    ("CC(=O)OC[C@@]12CC[C@H]3C(C)(C)CCC[C@]3(C)[C@H]1C[C@@H](C1=CC(=O)O[C@H]1O)O2", "inactive"),
    ("O=C(Nc1ccccc1)OCc1nc2c([nH]1)C(=O)C=CC2=O", "inactive"),
]

// query Could you kindly confirm the outcome this assay logged for COc1ccc(-c2c3c(nc4nc(SC)nc(SC)c24)CCCC3)cc1OC ?
// result inactive

// query Now this one: CC(=O)c1c(O)cc(O)c(-c2c(C)cc(O)c3c2C(=O)c2cccc(O)c2C3=O)c1O
// result inactive

// query Now this one: COc1ccc(Cn2c3ccc([N+](=O)[O-])cc3c(=O)n2Cc2ccccn2)cc1
// result inactive

// query Now this one: Cc1nc2cc(Nc3ccccc3C(=O)O)ccc2s1
// result inactive

// query Now this one: CCN=C=NCCCN(C)C
// result inactive

// query Now this one: CCOC(=O)c1nc2cc(C(F)(F)F)ccc2nc1Nc1cc(OC)c(OC)c(OC)c1
// result inactive

// query Now this one: O=[N+]([O-])c1ccc(-n2nc3ccc4c(no[n+]4[O-])c3[n+]2[O-])c([N+](=O)[O-])c1
// result inactive

// query Now this one: COc1ccc(/N=N/c2c(C)c(C#N)c(=S)n(C3OC(CO)C(O)C(O)C3O)c2-c2ccccc2)cc1 (configuration not stated)
// result inactive

// query Now this one: CC(=O)OCC1OC(n2c(N)c(C#N)c(-c3ccccc3)c(C#N)c2=S)C(OC(C)=O)C(OC(C)=O)C1OC(C)=O (configuration not stated)
// result inactive

// query Now this one: CCOC(=O)/C(=C\c1ccc(CO)o1)P(=O)(OCC)OCC
// result inactive

// query Now this one: CC(C)(C)C1CCC2c3c([nH]c4ccccc34)C3C(=O)N(c4ccc([N+](=O)[O-])cc4)C(=O)C3C2C1 (configuration not stated)
// result inactive

// query Now this one: N#CC(C#N)=C(C(C#N)C#N)C(C#N)C#N
// result inactive

// query Now this one: CCCC1(N)CC(OC)OC(C)C1O (configuration not stated)
// result inactive

// query Now this one: O=C(O)C1(C(=O)O)CC1
// result inactive

// query Now this one: COC1=CC(=O)C2=C(C[C@@]3(C)C(=C2)C(CO)=CC[C@H]3O)C1=O
// result active

// query Now this one: COC(=O)C1C=CN(N(C)C)C2=C1C(=O)c1c(O)cccc1C2=O (configuration not stated)
// result inactive

// query Now this one: CCOC(=O)C1(C)CCc2sc(N)c(C#N)c21 (configuration not stated)
// result inactive
